- System: HL-60(TB) leukemia
- assay: NCI-60 one-dose screen, 48 h
- condition summary: 10 µM unless noted
This is part of a sample that, as a whole, favours compounds with a hit. Of some 83,000 tested, about 20% had one in any assay. Calls of active or inactive are those of the source. The calls were made as follows: active = growth percent below 10; inactive = the rest.
Log the outcome using a class from TRUE = active, FALSE = inactive

O=C(Cc1ccc(F)cc1)c1ccccc1 | FALSE

Q: Outcome? N#CC1C(=N)Cc2ccccc2-c2ccccc21 (stereo unspecified)
A: FALSE

Q: Outcome? COc1ccc(S(=O)(=O)N2CCN(C)CC2)cc1NC(=O)c1[nH]c(C)c2c1CCCCC2=O
A: TRUE

Q: Outcome? NC(=O)SCC(=O)NNc1ccccc1
A: FALSE

Q: Outcome? COc1cc(NC(C)CCCNC(=O)CCC(=O)NCCCNCCCCCCCCNCCCNC(=O)CCC(=O)NCCCC(C)Nc2cc(OC)cc3cccnc23)c2ncccc2c1 (stereo unspecified)
A: FALSE

Q: Outcome? CCCNC(=O)Oc1ccc(/C(=C(/C)Cc2ccc(OC)cc2)c2ccc(OCCN3CCCCC3)cc2)cc1
A: FALSE

Hey, just so you know, these numbers are from PubChem BioAssay (NCI).
